The reported measurements were obtained from BindingDB's records for doi:10.1021/np100503q.

- test system: Transcription factor p65 (Human, UniProt Q04206)
- Sequence (Q04206 whole entry): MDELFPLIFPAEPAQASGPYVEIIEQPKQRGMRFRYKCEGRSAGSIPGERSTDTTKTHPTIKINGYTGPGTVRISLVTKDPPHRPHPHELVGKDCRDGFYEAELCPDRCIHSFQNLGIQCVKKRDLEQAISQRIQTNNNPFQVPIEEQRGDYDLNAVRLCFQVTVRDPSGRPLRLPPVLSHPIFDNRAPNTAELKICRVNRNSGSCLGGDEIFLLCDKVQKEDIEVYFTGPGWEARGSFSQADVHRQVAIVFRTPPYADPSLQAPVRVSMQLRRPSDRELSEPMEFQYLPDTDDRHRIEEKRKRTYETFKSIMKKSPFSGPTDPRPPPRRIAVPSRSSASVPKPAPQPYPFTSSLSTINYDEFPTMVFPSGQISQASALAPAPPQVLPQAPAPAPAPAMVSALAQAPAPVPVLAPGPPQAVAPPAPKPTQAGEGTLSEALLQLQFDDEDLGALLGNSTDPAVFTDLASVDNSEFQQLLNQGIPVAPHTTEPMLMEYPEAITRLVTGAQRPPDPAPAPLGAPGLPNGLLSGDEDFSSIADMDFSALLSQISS
- assay remarks: Inhibition of NF-kappaB p65 isolated from nuclear extract of human HeLa cells assessed as blockade of binding to biotinylated consesus sequence by chemiluminescence assay
pIC50: −log10 of the molar value.
measurement name: pIC50

Ask: Which pIC50 value belongs to COC(=O)[C@H]1[C@@H](O)[C@@]2(O)c3c(OC)cc(O[C@@H]4O[C@@H]([C@H](O)CO)CO[C@@H]4OC)cc3O[C@@]2(c2ccc(OC)cc2)[C@@H]1c1ccccc1 [5'''-episilvestrol] ?
Result: < 4.70
